ASSAY_METHOD_TEXT: Primary qHTS for delayed death inhibitors of the malarial parasite plastid, 96 hour incubation
EXPERIMENTAL_SETUP: P. falciparum luciferase reporter growth; series mostly up to 28.7 µM
In all, about 320,000 compounds went through this assay and about 22,000 (6.9%) were called active. Another 27% or so got no clear call; they are omitted. Calls come from the whole dose curve; as a rule, active = well fitted inhibition curve with a large enough effect; inconclusive = small, poorly fitted or top-dose-only effect, or another doubt; inactive = no such curve, though single readings can be large or run the other way. What follows is part of a selection rich in actives, with near analogues and random picks from the rest.
I would appreciate it if you answered using one of these outcomes: t (active), f (inactive)

The following molecules have reported results that may help.
[
  {
    "MOLECULE": "O=C(N[C@@H](Cc1c[nH]c2ccccc12)C(=O)O)OCC1c2ccccc2-c2ccccc21",
    "CLASS_ASSIGNMENT": "f"
  },
  {
    "MOLECULE": "CC(=O)c1ccc(NC(=O)Cn2c(=O)oc3ccccc32)cc1",
    "CLASS_ASSIGNMENT": "f"
  },
  {
    "MOLECULE": "CC(C)C[C@H](NC(=O)[C@@H]1O[C@H]1C(=O)O)C(=O)NCCCCN=C(N)N",
    "CLASS_ASSIGNMENT": "t"
  },
  {
    "MOLECULE": "Cc1ccc(N(C(=O)CNC(=O)c2ccco2)C(C(=O)NC2CCCC2)c2ccncc2)cc1 (stereo not given)",
    "CLASS_ASSIGNMENT": "f"
  }
]

Please find the next molecule below.
Ask | Check the results log: what was the call for CC(C)(C)NC(=O)C(c1ccc(Cl)cc1)N(CCO)C(=O)c1snc(C(N)=O)c1N (stereo not given) ?
Reply | f
